For each entry below, report its % of control metabolism, raloxifene G2 value.
- Test system: UGT enzymes of human liver microsomes
- Method Notes: Inhibition of raloxifene glucuronidation (G1, G2) in human liver microsomes
- Type: biochemical
- Conditions: raloxifene 50 μM; inhibitor 25 μM

Worked cases, answers included:
O=C(O[C@@H]1Cc2c(O)cc(O)cc2O[C@@H]1c1ccc(O)c(O)c1)c1cc(O)c(O)c(O)c1 [Epicatechin gallate] : 55 (5) %
O=C(O[C@@H]1Cc2c(O)cc(O)cc2O[C@H]1c1cc(O)c(O)c(O)c1)c1cc(O)c(O)c(O)c1 [Gallocatechin gallate] : 64 (4) %
O=C(OC[C@H]1O[C@@H](OC(=O)c2cc(O)c(O)c(OC(=O)c3cc(O)c(O)c(O)c3)c2)[C@H](OC(=O)c2cc(O)c(O)c(OC(=O)c3cc(O)c(O)c(O)c3)c2)[C@@H](OC(=O)c2cc(O)c(O)c(OC(=O)c3cc(O)c(O)c(O)c3)c2)[C@@H]1OC(=O)c1cc(O)c(O)c(OC(=O)c2cc(O)c(O)c(O)c2)c1)c1cc(O)c(O)c(OC(=O)c2cc(O)c(O)c(O)c2)c1 : 12 (2) %

Required: % of control metabolism, raloxifene G2, one value per compound below.
1. O=C(O[C@@H]1Cc2c(O)cc(O)cc2O[C@@H]1c1cc(O)c(O)c(O)c1)c1cc(O)c(O)c(O)c1 [Epigallocatechin gallate]
2. O=c1c(O)c(-c2ccc(O)c(O)c2)oc2cc(O)cc(O)c12
3. CCCCCCCCOC(=O)c1cc(O)c(O)c(O)c1 [Octyl gallate]
4. CCCOC(=O)c1cc(O)c(O)c(O)c1 [Propyl gallate]

# output
1: 63 (1) %; 2: 25 (1) %; 3: 59 (5) %; 4: 60 (4) %

# input I would be grateful if you could share the reported % of control metabolism, raloxifene G2 for CC/C(=C(/CC)c1ccc(O)cc1)c1ccc(O)cc1 [Diethylstilbestrol, reference compound] .
# output 100 (5) %
